B1: POU domain, class 4, transcription factor 1, residues 266 to 347; numbered along this chain, Q01851 (parent)
chain: RELEAFAERFKQRRIKLGVTQADVGSALANLKIPGVGSLSQSTICRFESLTLSHNNMIALKPILQAWLEEAEGAQREKMNKP

# Variants of: B1
# measurementNotes: abundance fitness (aPCA) (normalised: wild type 0, dead -1); higher = more abundant; growth selection in yeast, the domain comes from the species named
# recordedConditions: Homo sapiens
Class (required): determined from abundance fitness; valid ranges are L: < -0.1; M: ≥ -0.1 and < 0.004; H: ≥ 0.004

>>> print(df.to_string())
                         biopolymersequence  cat
0  RELEAFAERFKQRRIKLGVTQADVGSALANLKIPGVGSLSQSTICRFESLTLSHNNMIALKPILQAWLEEAEGATREKMNKP [Q75T]    M
1  RELEAFAERFKQRRIKLGVTQADVGSALANLKIPGVGSLSQSTICRFESLTLSHNSMIALKPILQAWLEEAEGAQREKMNKP [N56S]    H
2  RELEAFAERFKQRRIKLGVTQADVGSALANLKIPGVGFLSQSTICRFESLTLSHNNMIALKPILQAWLEEAEGAQREKMNKP [S38F]    H
3  RELEAFAERFKQRRIKLGVTQADVGSALANLKIPGVGSLSQSTICRFESLTLSHNNMIALKPILQAWLEEAEGAQRQKMNKP [E77Q]    M
4  RELEAFAERFKQRRIKLGVTQADVGHALANLKIPGVGSLSQSTICRFESLTLSHNNMIALKPILQAWLEEAEGAQREKMNKP [S26H]    M
5  RELEAFAERFKQRRIKLTVTQADVGSALANLKIPGVGSLSQSTICRFESLTLSHNNMIALKPILQAWLEEAEGAQREKMNKP [G18T]    L
6  RELEAFAERFKQRRIKLGVTQADVGSALANLKIPGVGSLSQSTICRFESCTLSHNNMIALKPILQAWLEEAEGAQREKMNKP [L50C]    H
7  RELEAFAEDFKQRRIKLGVTQADVGSALANLKIPGVGSLSQSTICRFESLTLSHNNMIALKPILQAWLEEAEGAQREKMNKP [R9D]    L
8  RELEAFAERFKQRRIKLGVTQADVGSALANLKIPGVGSLSQSTICRFESLTLSHNNMIALTPILQAWLEEAEGAQREKMNKP [K61T]    L
9  RQLEAFAERFKQRRIKLGVTQADVGSALANLKIPGVGSLSQSTICRFESLTLSHNNMIALKPILQAWLEEAEGAQREKMNKP [E2Q]    L
